Reference source for all entries: patent US12410208B2

TESTED TARGET: biotinylated human Gal-3 (hGal-3) (Homo sapiens)
Sequence (P17931 whole entry): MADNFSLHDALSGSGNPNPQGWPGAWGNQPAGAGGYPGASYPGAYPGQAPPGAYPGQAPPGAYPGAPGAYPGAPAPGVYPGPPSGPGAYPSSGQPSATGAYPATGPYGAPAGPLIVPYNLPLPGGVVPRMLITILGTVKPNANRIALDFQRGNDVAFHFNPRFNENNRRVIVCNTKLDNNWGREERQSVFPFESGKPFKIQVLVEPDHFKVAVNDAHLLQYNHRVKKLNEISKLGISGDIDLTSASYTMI
METHOD NOTES: Competitive binding assay: biotinylated hGal-3 binding to microplate-adsorbed asialofetuin (ASF), spectrophotometric
EXPERIMENTAL PARAMETERS: Gal-3 inhibition, Table 5; read-out: IC50
pIC50: −log10 of the molar value.

>  <MOLECULE>
CN(CC(F)(F)F)C(=O)C(S[C@@H]1O[C@H](CO)[C@H](O)[C@H](n2cc(-c3cc(F)c(F)c(F)c3)nn2)[C@H]1O)C1(O)CCC1 (stereo partly drawn)

>  <pIC50>
6.59

$$$$
>  <MOLECULE>
CN(CC(C)(C)C)C(=O)C(S[C@@H]1O[C@H](CO)[C@H](O)[C@H](n2cc(-c3cc(F)c(F)c(F)c3)nn2)[C@H]1O)C1(O)CCCC1 (stereo partly drawn)

>  <pIC50>
6.82

$$$$
>  <MOLECULE>
CN(CC1CC1)C(=O)C(S[C@@H]1O[C@H](CO)[C@H](O)[C@H](n2cc(-c3cc(F)c(F)c(F)c3)nn2)[C@H]1O)C1(O)CCC(F)(F)CC1 (stereo partly drawn)

>  <pIC50>
7.70

$$$$

====

Each entry below carries its measured IC50, system: human Gal-1 (hGal-1) (Homo sapiens).
Sequence (P09382 whole entry): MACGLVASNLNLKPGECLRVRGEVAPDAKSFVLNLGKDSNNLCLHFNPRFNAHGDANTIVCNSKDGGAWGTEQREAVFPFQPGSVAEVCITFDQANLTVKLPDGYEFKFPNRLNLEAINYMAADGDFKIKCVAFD
MEASURED QUANTITY: IC50

>  <COMPOUND>
CC1CCN1C(=O)C(S[C@@H]1O[C@H](CO)[C@H](O)[C@H](n2cc(-c3cc(F)c(F)c(F)c3)nn2)[C@H]1O)C(C)(C)O (some centres unmarked)

>  <MEASURED QUANTITY>
IC50

>  <MEASURED RESULT>
2800 nM

$$$$
>  <COMPOUND>
CCN(C)C(=O)[C@H](S[C@@H]1O[C@H](CO)[C@H](O)[C@H](n2cc(-c3cc(F)c(F)c(F)c3)nn2)[C@H]1O)C1(O)CC(F)(F)C1 [Example 2.33.203R.]

>  <MEASURED QUANTITY>
IC50

>  <MEASURED RESULT>
4200 nM

$$$$
>  <COMPOUND>
CN(CC1CC1)C(=O)C(S[C@@H]1O[C@H](CO)[C@H](O)[C@H](n2cc(-c3cc(F)c(F)c(F)c3)nn2)[C@H]1O)C(C)(C)O (some centres unmarked)

>  <MEASURED QUANTITY>
IC50

>  <MEASURED RESULT>
220 nM

$$$$
>  <COMPOUND>
O=C([C@@H](S[C@@H]1O[C@H](CO)[C@H](O)[C@H](n2cc(-c3cc(F)c(F)c(F)c3)nn2)[C@H]1O)C1(O)CCOCC1)N1CCCCC1 [Example 2.41.208S.]

>  <MEASURED QUANTITY>
IC50

>  <MEASURED RESULT>
800 nM

$$$$
>  <COMPOUND>
O=C([C@H](S[C@@H]1O[C@H](CO)[C@H](O)[C@H](n2cc(-c3cc(F)c(F)c(F)c3)nn2)[C@H]1O)C1(O)CCC1)N1CCC1 [Example 2.34.206R.]

>  <MEASURED QUANTITY>
IC50

>  <MEASURED RESULT>
6910 nM

$$$$
>  <COMPOUND>
O=C([C@H](S[C@@H]1O[C@H](CO)[C@H](O)[C@H](n2cc(-c3cc(F)c(F)c(F)c3)nn2)[C@H]1O)C1(O)CCC1)N1CCCCC1 [Example 2.34.208R.]

>  <MEASURED QUANTITY>
IC50

>  <MEASURED RESULT>
11500 nM

$$$$
>  <COMPOUND>
CO[C@@H]1[C@@H](n2cc(-c3cc(F)c(F)c(F)c3)nn2)[C@@H](O)[C@@H](CO)O[C@H]1S[C@H](C(=O)N(C)CC(C)(C)F)C1(O)CCC(F)(F)CC1 [Example 2.44.222S.I.]

>  <MEASURED QUANTITY>
IC50

>  <MEASURED RESULT>
70 nM

$$$$
>  <COMPOUND>
CC1CCN1C(=O)C(S[C@@H]1O[C@H](CO)[C@H](O)[C@H](n2cc(-c3cc(F)c(F)c(F)c3)nn2)[C@H]1O)C1(O)CCOCC1 (some centres unmarked)

>  <MEASURED QUANTITY>
IC50

>  <MEASURED RESULT>
950 nM

$$$$
